The following molecules are listed with their measured melting point values.
Where a name gives a salt, the structure may show the parent alone.
QUANTITY_MEASURED: melting point

- MOLECULE: "C[Si](C)(OC[C@H]1O[C@@H](n2ccc(N)nc2=O)[C@@H](C#N)[C@@H]1O)c1ccccc1"
  RESULT: "139 to 140 °C"
- MOLECULE: "CC(C)(C)[Si]1(C(C)(C)C)OC[C@H]2O[C@@H](n3ccc(N)nc3=O)[C@@H](C#N)[C@@H]2O1"
  RESULT: "139 to 140 °C"
- MOLECULE: "CC(C)C[Si](CC(C)C)(CC(C)C)OC[C@H]1O[C@@H](n2ccc(N)nc2=O)[C@@H](C#N)[C@@H]1O"
  RESULT: "152 °C"
- MOLECULE: "CC(C)(C)[Si](OC[C@H]1O[C@@H](n2ccc(N)nc2=O)[C@@H](C#N)[C@@H]1O)(c1ccccc1)c1ccccc1"
  RESULT: "187 °C"
- MOLECULE: "CC(C)C[Si](CC(C)C)(CC(C)C)O[C@H]1[C@H](C#N)[C@H](n2ccc(N)nc2=O)O[C@@H]1CO"
  RESULT: "101 to 102 °C"
- MOLECULE: "C[Si](C)(OC[C@H]1O[C@@H](n2ccc(N)nc2=O)[C@@H](C#N)[C@@H]1O)C1CCCCC1"
  RESULT: "152 to 153 °C"
- MOLECULE: "CC(C)C(C)(C)[Si](C)(C)OC[C@H]1O[C@@H](n2ccc(N)nc2=O)[C@@H](C#N)[C@@H]1O"
  RESULT: "188 °C (dec.)"
- MOLECULE: "CC(C)C(C)(C)[Si](C)(C)O[C@H]1[C@H](C#N)[C@H](n2ccc(N)nc2=O)O[C@@H]1CO.CS(=O)(=O)O"
  RESULT: "203 to 204 °C"
- MOLECULE: "CC(C)C(C)(C)[Si](C)(C)O[C@H]1[C@H](C#N)[C@H](n2ccc(N)nc2=O)O[C@@H]1CO (as salt: hydrochloride) [Example 26]"
  RESULT: "206 °C (dec.)"
- MOLECULE: "CC(C)(C)[Si](C)(C)OC[C@H]1O[C@@H](n2ccc(N)nc2=O)[C@@H](C#N)[C@@H]1O"
  RESULT: "185 °C (dec.)"
- MOLECULE: "N#C[C@H]1[C@H](O)[C@@H](CO[Si](Cc2ccccc2)(Cc2ccccc2)Cc2ccccc2)O[C@H]1n1ccc(N)nc1=O"
  RESULT: "188 °C (dec.)"
- MOLECULE: "CC(C)(C)[Si](C)(C)O[C@H]1[C@H](C#N)[C@H](n2ccc(N)nc2=O)O[C@@H]1CO.O=C(O)C(F)(F)F"
  RESULT: "163 to 165 °C"
- MOLECULE: "CC(C)[Si](OC[C@H]1O[C@@H](n2ccc(N)nc2=O)[C@@H](C#N)[C@@H]1O)(C(C)C)C(C)C"
  RESULT: "177 °C (dec.)"
- MOLECULE: "CC(C)[C@H](N)C(=O)OC[C@H]1O[C@@H](n2ccc(N)nc2=O)[C@@H](C#N)[C@@H]1O[Si](C)(C)C(C)(C)C(C)C (as salt: trifluoroacetate)"
  RESULT: "118 to 120 °C"

Source of measurements: patent US7825103B2
